Source listed as patent US20100325744A1.

biological target: the molecule itself; experiment: monomer to dimer conversion (% monomer vs concentration); self-association
Test Readout: EC50 (nM)
Write the value in nM as a bare number.

F273A (protein) ASTKGPSVFPLAPCSRSTSESTAALGCLVKDYFPEPVTVSWNSGALTSGVHTFPAVLQSSGLYSLSSVVTVPSSSLGTKTYTCNVDHKPSNTKVDKRVAPEFLGGPSVFLFPPKPKDTLMISRTPEVTCVVVDVSQEDPEVQFNWYVDGVEVHNAKTKPREEQFNSTYRVVSVLTVLHQDWLNGKEYKCKVSNKGLPSSIEKTISKAKGQPREPQVYTLPPSQEEMTKNQVSLTCLVKGFYPSDIAVEWESNGQPENNYKTTPPVLDSDGSFALYSRLTVDKSRWQEGNVFSCSVMHEALHNHYTQKSLSLSLGK
3060
Y275A (protein) ASTKGPSVFPLAPCSRSTSESTAALGCLVKDYFPEPVTVSWNSGALTSGVHTFPAVLQSSGLYSLSSVVTVPSSSLGTKTYTCNVDHKPSNTKVDKRVAPEFLGGPSVFLFPPKPKDTLMISRTPEVTCVVVDVSQEDPEVQFNWYVDGVEVHNAKTKPREEQFNSTYRVVSVLTVLHQDWLNGKEYKCKVSNKGLPSSIEKTISKAKGQPREPQVYTLPPSQEEMTKNQVSLTCLVKGFYPSDIAVEWESNGQPENNYKTTPPVLDSDGSFFLASRLTVDKSRWQEGNVFSCSVMHEALHNHYTQKSLSLSLGK
2190

We now examine a further protein.
Could you tell me which EC50 is on file for WT (protein) ASTKGPSVFPLAPCSRSTSESTAALGCLVKDYFPEPVTVSWNSGALTSGVHTFPAVLQSSGLYSLSSVVTVPSSSLGTKTYTCNVDHKPSNTKVDKRVAPEFLGGPSVFLFPPKPKDTLMISRTPEVTCVVVDVSQEDPEVQFNWYVDGVEVHNAKTKPREEQFNSTYRVVSVLTVLHQDWLNGKEYKCKVSNKGLPSSIEKTISKAKGQPREPQVYTLPPSQEEMTKNQVSLTCLVKGFYPSDIAVEWESNGQPENNYKTTPPVLDSDGSFFLYSRLTVDKSRWQEGNVFSCSVMHEALHNHYTQKSLSLSLGK ?
39
